Ref: PubChem BioAssay (EPA / NIEHS)

- Read-out: Cytochrome P450 (CYP24A1), CYP24A1 (gene 1591)
- Measurement description: LTEA_HepaRG_CYP24A1: Life Technologies and Expression Analysis (LTEA) Assay for Cytochrome P450 (CYP24A1) using HepaRG (AID 2283478)
- Condition label: mRNA level, 48 h; actives raise or lower the signal
Activity calls are given as the source filed them. The calls were made as follows: active = hit-call score of the fitted dose curve at least 0.9, where 1 is the maximum; inactive = score below 0.9.
Tick one outcome: 1 (active), 0 (inactive)

*Q* Status in this test for CCc1ccc(CCOc2ccc(CC3SC(=O)NC3=O)cc2)nc1 (stereo unspecified) ?
*A* 0

====

- Read-out: Bcl-2 (BAX) gene, BAX (gene 581)
- Measurement description: LTEA_HepaRG_BAX: Life Technologies and Expression Analysis (LTEA) Assay for Bcl-2 (BAX) gene using HepaRG (AID 2283470)
- Condition label: mRNA level, 48 h; actives raise or lower the signal
The source made the active and inactive calls. Rule for the calls: active = hit-call score of the fitted dose curve at least 0.9, where 1 is the maximum; inactive = score below 0.9.
Tick one outcome: active, inactive

C=C(C)C(=O)OCCC(F)(F)C(F)(F)C(F)(F)C(F)(F)C(F)(F)C(F)(F)F :: inactive
ClC1=C(Cl)C(Cl)(Cl)C(Cl)=C1Cl :: inactive
COC(=O)CCCCC(=O)OC :: inactive
CC#C[C@]1(O)CC[C@H]2[C@@H]3CCC4=CC(=O)CCC4=C3[C@@H](c3ccc(N(C)C)cc3)C[C@@]21C :: active
CCN(CC)CCNc1ccc(CNC=O)c2sc3ccc(OC)cc3c(=O)c12 :: inactive
CCCOC(=O)c1ccc(O)cc1 :: inactive
Cc1oc(-c2ccccc2)nc1CCOc1ccc(C[C@H](Nc2ccccc2C(=O)c2ccccc2)C(=O)O)cc1 :: inactive
CC(=O)NC1(c2cccc(F)c2)CCN(CC[C@@]2(c3ccc(Cl)c(Cl)c3)CN(c3ccccc3)C(=O)CO2)CC1 :: inactive
Cc1cc(C)c(O)c(C)c1 :: inactive
OC1CCC(C2CCCCC2)CC1 (configuration not stated) :: inactive

*Q* Status in this test for COCC(C)O (configuration not stated) ?
*A* inactive

*Q* Status in this test for "O=c1c(-c2ccc(O)cc2)coc2cc(O)ccc12" ?
*A* inactive

*Q* Status in this test for "CC1=C(/C=C/C(C)=C/C=C/C(C)=C/C(=O)O)C(C)(C)CCC1" ?
*A* active

*Q* Status in this test for "O=[N+]([O-])c1ccc(O)cc1" ?
*A* inactive

*Q* Status in this test for CCc1ccc(CCOc2ccc(CC3SC(=O)NC3=O)cc2)nc1 (configuration not stated) ?
*A* inactive

*Q* Status in this test for "O=C(O)c1ccccc1C(c1ccc(O)cc1)c1ccc(O)cc1" ?
*A* inactive

*Q* Status in this test for "Oc1cc2ccccc2c2ccccc12" ?
*A* inactive

*Q* Status in this test for "CC(=O)CC(C)(C)O" ?
*A* inactive
